# ASSAY INFO: JHH-DIPG-1 glioma cell viability, MIPE5.0 library, CellTiter-Glo luminescence, qHTS (AID 1347067);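 note: cells exposed to compound for 48 hours before readout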
# RUN PARAMETERS: JHH-DIPG-1 glioma viability, CellTiter-Glo ATP luminescence
Inconclusive results are not listed. The source made the active and inactive calls. No cut-off is given here; in the data, nearly all actives have AC50 up to about 26 µM.
RESULT TYPE: AC50

| ITEM SMILES | RESULT TYPE | OBSERVED |
| --- | --- | --- |
| CNCCCOc1cc(F)c(-c2c(Cl)nc3ncnn3c2N[C@@H](C)C(F)(F)F)c(F)c1 | AC50 | 0.105 µM (active) |
| CC[C@H](Nc1ncnc2nc[nH]c12)c1nc2cccc(F)c2c(=O)n1-c1ccccc1 | AC50 | inactive |
| CO[C@H]1C[C@@H]2CC[C@@H](C)[C@@](O)(O2)C(=O)C(=O)N2CCCC[C@H]2C(=O)O[C@H]([C@H](C)C[C@@H]2CC[C@@H](OC(=O)C(C)(CO)CO)[C@H](OC)C2)CC(=O)[C@H](C)/C=C(\C)[C@@H](O)[C@@H](OC)C(=O)[C@H](C)C[C@H](C)/C=C/C=C/C=C/1C | AC50 | 14.4 µM (active) |
| COc1cc(C(=O)N2CCC(N3CCN(C)CC3)CC2)ccc1Nc1ncc2c(n1)N(C)c1ccccc1C(=O)N2C | AC50 | 18.6 µM (active) |
| COc1ccc(Cl)cc1-c1cc(=O)[nH]c(=S)n1CC(N)=O | AC50 | inactive |
| COc1ccccc1-c1cccc(-c2c(O)c3cc(C#N)c(Cl)cc3[nH]c2=O)c1 | AC50 | inactive |
| COc1ccc(-c2nc(N3CCOCC3)c3sc(CN(C)c4ncc(C(=O)NO)cn4)cc3n2)cn1 | AC50 | 0.00662 µM (active) |

* * *

# ASSAY INFO: growth inhibition of DIPG cells – cell-based, MIPE4.0 library, CellTiter-Glo luminescence, qHTS (AID 1347066);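 note: cells exposed to compound for 48 hours before readout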
# RUN PARAMETERS: SU-DIPG-VI viability, CellTiter-Glo ATP luminescence
Results filed as inconclusive are left out. The source made the active and inactive calls. Cut-off not given; nearly all actives show AC50 up to about 30 µM.
Outcomes: active, inactive

| ITEM SMILES | CATEGORY |
| --- | --- |
| COc1nc(-c2ccc3c(c2)OCO3)n(-c2ccc(NC(=O)CSc3ccccc3)cc2)n1 | inactive |
| CCCCCCCCCCCCc1ccc(S(=O)(=O)Nc2nncs2)cc1 | inactive |
| O=C(NCc1ccccc1)[C@H](Cc1ccccc1)NC(=O)[C@H]1O[C@@H]1C(=O)NCCc1ccc(O)cc1 | inactive |
| C/C(=C\C(=O)Nc1ccccc1C(=O)O)c1ccc2ccccc2c1 | inactive |
| Cc1ccc(NC(=O)Nc2cc(C(F)(F)F)ccc2F)cc1Nc1ccc2c(c1)NC(=O)/C2=C\c1ccc[nH]1 | active |
| N#CC(=C(O)c1ccc(Cl)cc1Cl)c1nc2cc(Cl)ccc2c(=O)[nH]1 | inactive |
| Cn1c(N2CCCCS2(=O)=O)nc(C(=O)NCc2ccc(F)cc2)c(O)c1=O | inactive |
| O=C(/C=C/c1ccc(/C=C/C(=O)Nc2ccc(C3=NCCN3)cc2)cc1)Nc1ccc(C2=NCCN2)cc1 | inactive |
| O=C(NC[C@H]1CN(c2ccc(N3CCOCC3=O)cc2)C(=O)O1)c1ccc(Cl)s1 | inactive |
